Substrate: pcPET (post-consumer)
Assay: Proxy for plastic degradation [Released monomer concentration (HPLC/LC-MS) (TPA+MHET+BHET)]
Details: pH 9; 40 °C; 24 h
Attribute Measured: Proxy for plastic degradation

>>> observed_value("unnamed (protein) MLSFLRSTGRPERRRASLPALLLFTAALVASGLTAAPAAQAADNPYQRGPDPTNASIEAATGPFAVGTQPIVGASGFGGGQIYYPTDTSQTYGAVVIVPGFISVWAQLNWLGPRLASQGFVVIGIETSVITDLPDPRGDQALAALDWATTASPVASRIDRTRLAAAGWSMGGGGLRRAALQRPSLKAIVGMAPWNGERNWSAVTVPTLFFGGSSDAVASPNDHAKPFYNSITRAEKDYIELRNADHFFPTSANTTMAKYFISWLKRWVDNDTRYTQFLCPGPSTGLFAPVSASMNTCPF")
"600 µM"

The recorded Proxy for plastic degradation for unnamed (protein) MLSFLRSTGRPERRRASLPALLLFTAALVASGLTAAPAAQAADNPYQRGPDPTNASIEAATGPFAVGTQPIVGASGFGGGQIYYPTDTSQTYGAVVIVPGFISVWAQLNWLGPRLASQGFVVIGIETSVITDLPDPRGDQALAALDWATTRSPVASRIDATRLAAAGWSMGGGGLRRAALQRPSLKAIVGMAPWNGERNWSAVTVPTLFFGGSSDAVASPNDHAKPFYNSITRAEKDYIELRNADHFFPTSANTTMAKYFISWLKRWVDNDTRYTQFLCPGPSTGLFAPVSASMNTCPF is 680 µM
